- System: Escherichia coli TOP10
- Protocol: shrunken log2 fold change of peptide-encoding DNA abundance (4.5 h post-induction vs induction); higher = less antimicrobial activity (less host growth inhibition)
- Protocol Conditions: time post-induction: 4.5 h; library: site-saturation at positions 5, 18, 19, 20
Assay Readout: shrunken log2 fold change

Examples from the recorded data:
- Sequence Entry: "RRIRSRPPRLPRPRPRPVFVPRP"
  Target: "Escherichia coli TOP10"
  shrunken log2 fold change: -0.00419
- Sequence Entry: "RRIRFRPPRLPRPRPRPPLRPRP"
  Target: "Escherichia coli TOP10"
  shrunken log2 fold change: 0.373
- Sequence Entry: "RRIRVRPPRLPRPRPRPKYLPRP"
  Target: "Escherichia coli TOP10"
  shrunken log2 fold change: -0.308
- Sequence Entry: "RRIRFRPPRLPRPRPRPGCHPRP"
  Target: "Escherichia coli TOP10"
  shrunken log2 fold change: -0.141
- Sequence Entry: "RRIRQRPPRLPRPRPRPSFTPRP"
  Target: "Escherichia coli TOP10"
  shrunken log2 fold change: -1.12
- Sequence Entry: "RRIRPRPPRLPRPRPRPRLSPRP"
  Target: "Escherichia coli TOP10"
  shrunken log2 fold change: 0.306
- Sequence Entry: "RRIRNRPPRLPRPRPRPAMGPRP"
  Target: "Escherichia coli TOP10"
  shrunken log2 fold change: 0.288
- Sequence Entry: "RRIRTRPPRLPRPRPRPYNLPRP"
  Target: "Escherichia coli TOP10"
  shrunken log2 fold change: -0.336
- Sequence Entry: "RRIRERPPRLPRPRPRPSGGPRP"
  Target: "Escherichia coli TOP10"
  shrunken log2 fold change: -0.0233
- Sequence Entry: "RRIRIRPPRLPRPRPRPTTNPRP"
  Target: "Escherichia coli TOP10"
  shrunken log2 fold change: -0.463

Quick one: shrunken log2 fold change for "RRIRDRPPRLPRPRPRPDLEPRP" ?
0.0526

Same thing, different sequence: "RRIRHRPPRLPRPRPRPYSMPRP"
-0.878

# repeat for "RRIRERPPRLPRPRPRPYLPPRP"
-0.392

Moving on to the next sequence: "RRIRSRPPRLPRPRPRPMKMPRP"
-0.0963

Please answer likewise for "RRIRERPPRLPRPRPRPLVRPRP"
-0.192

What do you have for "RRIRERPPRLPRPRPRPLPYPRP" ?
-0.345

Item: "RRIRHRPPRLPRPRPRPPRFPRP"
0.578

Follow-up item: "RRIRKRPPRLPRPRPRPADIPRP"
-0.075

// next record "RRIRQRPPRLPRPRPRPIRVPRP"
-0.00674

Then this sequence: "RRIRKRPPRLPRPRPRPEFTPRP"
0.738

Try this sequence too: "RRIRGRPPRLPRPRPRPHTKPRP"
0.104

Input "RRIRDRPPRLPRPRPRPYHTPRP"
-0.403

Consider next the sequence "RRIRARPPRLPRPRPRPIAKPRP" in the same way.
0.217

Please do the same for "RRIRRRPPRLPRPRPRPQAPPRP" as well.
0.236

Same read-out for "RRIRPRPPRLPRPRPRPIYGPRP" ?
-0.0498

Record: "RRIRLRPPRLPRPRPRPLRFPRP"
0.477

And then "RRIRFRPPRLPRPRPRPVHYPRP" , what is it?
-0.195

What would you report for "RRIRGRPPRLPRPRPRPQMVPRP" ?
0.166

Quick one: "RRIRVRPPRLPRPRPRPMKKPRP"
0.0174

Quick one: "RRIRIRPPRLPRPRPRPVLHPRP"
-0.447

// repeat for "RRIRHRPPRLPRPRPRPDNFPRP" and report
-0.0184

Likewise for "RRIRARPPRLPRPRPRPQNSPRP" ?
-0.23

Same thing, different sequence: "RRIRWRPPRLPRPRPRPEMQPRP"
1.12

###

shrunken log2 fold change overview
- Test system: Escherichia coli TOP10
- Protocol: shrunken log2 fold change of peptide-encoding DNA abundance (4.5 h post-induction vs induction); higher = less antimicrobial activity (less host growth inhibition)
- Protocol Conditions: time post-induction: 4.5 h; library: site-saturation at positions 5, 18, 19, 20
Could you respond with only the numeric value?

Look up shrunken log2 fold change for this sequence: "RRIRDRPPRLPRPRPRPYYIPRP"
-0.0955

Same read-out for "RRIRRRPPRLPRPRPRPRSRPRP" ?
0.345

For "RRIRWRPPRLPRPRPRPCPPPRP" then?
-0.463

Please do the same for "RRIRERPPRLPRPRPRPFVMPRP" as well.
-0.345

Entry "RRIRVRPPRLPRPRPRPECQPRP" please
0.353

Also "RRIRCRPPRLPRPRPRPVTAPRP" ?
0.108

What would you report for "RRIRLRPPRLPRPRPRPDGDPRP" ?
0.234

Now consider "RRIRVRPPRLPRPRPRPQSHPRP" .
-0.613

Let us now turn to "RRIRRRPPRLPRPRPRPNCQPRP"
0.0764

Same again, this time with "RRIRHRPPRLPRPRPRPFLGPRP"
0.0354

Would you kindly repeat that for "RRIRIRPPRLPRPRPRPRKGPRP" ?
0.05

Now the same for "RRIRTRPPRLPRPRPRPPCMPRP"
0.0978

Consider next the sequence "RRIRDRPPRLPRPRPRPQHCPRP" in the same way.
0.0461

Try the sequence "RRIRIRPPRLPRPRPRPMMMPRP"
-0.227

Follow-up item: "RRIRGRPPRLPRPRPRPWHSPRP"
0.0143

###

- Test system: Escherichia coli TOP10
- Protocol: shrunken log2 fold change of peptide-encoding DNA abundance (4.5 h post-induction vs induction); higher = less antimicrobial activity (less host growth inhibition)
- Protocol Conditions: time post-induction: 4.5 h; library: site-saturation at positions 5, 18, 19, 20
Quick reference for shrunken log2 fold change among some sequences
# answer = number (no unit)

// solved cases for shrunken log2 fold change follow
- Sequence Entry: "RRIRPRPPRLPRPRPRPFYMPRP"
  shrunken log2 fold change: -0.324
- Sequence Entry: "RRIRYRPPRLPRPRPRPKMTPRP"
  shrunken log2 fold change: -0.728
- Sequence Entry: "RRIRFRPPRLPRPRPRPRPYPRP"
  shrunken log2 fold change: -0.175
- Sequence Entry: "RRIRLRPPRLPRPRPRPHDAPRP"
  shrunken log2 fold change: -0.0938
- Sequence Entry: "RRIRSRPPRLPRPRPRPDDEPRP"
  shrunken log2 fold change: 0.0222

Which shrunken log2 fold change value is on record for "RRIRSRPPRLPRPRPRPAEQPRP" ?
0.0415

Further, for "RRIRARPPRLPRPRPRPRCRPRP" ?
0.427

Moving on to "RRIRFRPPRLPRPRPRPCQVPRP"
0.084

Also check "RRIRDRPPRLPRPRPRPRGSPRP"
0.255

Check "RRIRLRPPRLPRPRPRPGTSPRP" too.
-0.0167

// query: "RRIRERPPRLPRPRPRPKYYPRP"
-0.183

// next record "RRIRGRPPRLPRPRPRPSCKPRP"
0.319

Would you kindly repeat that for "RRIRDRPPRLPRPRPRPKPMPRP" ?
0.135

Moving on to the next sequence: "RRIRRRPPRLPRPRPRPWDKPRP"
0.0425

Would you kindly repeat that for "RRIRERPPRLPRPRPRPGRKPRP" ?
-0.12

Entry to check: "RRIRDRPPRLPRPRPRPAEKPRP"
0.0328

###

- Tested on: Escherichia coli TOP10;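 note: peptides expressed intracellularly from a pBAD plasmid library in pooled LB shake-flask culture, induced with 0.3% L-arabinose, DNA abundance read by NGS, three biological replicates, DESeq2 with apeglm shrinkage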
- Protocol: shrunken log2 fold change of peptide-encoding DNA abundance (4.5 h post-induction vs induction); higher = less antimicrobial activity (less host growth inhibition)
- Protocol Conditions: time post-induction: 4.5 h; library: site-saturation at positions 5, 18, 19, 20
Assay Readout: shrunken log2 fold change
# output: bare number, no unit

# count of solved cases: 10
- Sequence Entry: "RRIRLRPPRLPRPRPRPPPGPRP"
  Target: "Escherichia coli TOP10"
  Assay Readout: "shrunken log2 fold change"
  Observed Measurement: 1.29
- Sequence Entry: "RRIRDRPPRLPRPRPRPKNWPRP"
  Target: "Escherichia coli TOP10"
  Assay Readout: "shrunken log2 fold change"
  Observed Measurement: 2.51
- Sequence Entry: "RRIRIRPPRLPRPRPRPYCFPRP"
  Target: "Escherichia coli TOP10"
  Assay Readout: "shrunken log2 fold change"
  Observed Measurement: -0.834
- Sequence Entry: "RRIRWRPPRLPRPRPRPDSCPRP"
  Target: "Escherichia coli TOP10"
  Assay Readout: "shrunken log2 fold change"
  Observed Measurement: -0.0201
- Sequence Entry: "RRIRTRPPRLPRPRPRPLSRPRP"
  Target: "Escherichia coli TOP10"
  Assay Readout: "shrunken log2 fold change"
  Observed Measurement: -0.45
- Sequence Entry: "RRIRARPPRLPRPRPRPPTIPRP"
  Target: "Escherichia coli TOP10"
  Assay Readout: "shrunken log2 fold change"
  Observed Measurement: 0.0349
- Sequence Entry: "RRIRNRPPRLPRPRPRPIPMPRP"
  Target: "Escherichia coli TOP10"
  Assay Readout: "shrunken log2 fold change"
  Observed Measurement: -0.026
- Sequence Entry: "RRIRARPPRLPRPRPRPWYEPRP"
  Target: "Escherichia coli TOP10"
  Assay Readout: "shrunken log2 fold change"
  Observed Measurement: -0.0297
- Sequence Entry: "RRIRQRPPRLPRPRPRPMTHPRP"
  Target: "Escherichia coli TOP10"
  Assay Readout: "shrunken log2 fold change"
  Observed Measurement: -0.466
- Sequence Entry: "RRIRARPPRLPRPRPRPINVPRP"
  Target: "Escherichia coli TOP10"
  Assay Readout: "shrunken log2 fold change"
  Observed Measurement: -0.0118

// shrunken log2 fold change lookup, key: "RRIRERPPRLPRPRPRPQPYPRP"
-0.43

Also need "RRIRQRPPRLPRPRPRPDTLPRP" , thanks.
0.016

Also, "RRIRARPPRLPRPRPRPPPCPRP" please.
0.979

Then this sequence: "RRIRCRPPRLPRPRPRPDVQPRP"
0.0161

What about this sequence? "RRIRKRPPRLPRPRPRPTIKPRP"
0.104
